test: Pharmacokinetics of gefitinib after repeated oral Lonicera flos; format: in vivo, Sprague-Dawley rats; conditions: male, Sprague-Dawley, rat, plasma, oral, gefitinib 10 mg/kg oral after Lonicera flos 300 mg/kg oral 15 days, 10 h

>  <molecule>
COc1cc2ncnc(Nc3ccc(F)c(Cl)c3)c2cc1OCCCN1CCOCC1 [Gefitinib, gefitinib]

>  <concentration at 10 h>
430 ng/mL

$$$$

----------
assay: Pharmacokinetics of gefitinib after repeated oral Lonicera flos; format: in vivo, Sprague-Dawley rats; conditions: male, Sprague-Dawley, rat, plasma, po, 10 mg/kg, gefitinib 10 mg/kg oral, Lonicera japonica group (15 days pre-treatment), average

>  <compound>
COc1cc2ncnc(Nc3ccc(F)c(Cl)c3)c2cc1OCCCN1CCOCC1 [Gefitinib, gefitinib]

>  <Tmax, h>
2.89

$$$$
